B1: Azoarcus group I ribozyme (parent)
chain: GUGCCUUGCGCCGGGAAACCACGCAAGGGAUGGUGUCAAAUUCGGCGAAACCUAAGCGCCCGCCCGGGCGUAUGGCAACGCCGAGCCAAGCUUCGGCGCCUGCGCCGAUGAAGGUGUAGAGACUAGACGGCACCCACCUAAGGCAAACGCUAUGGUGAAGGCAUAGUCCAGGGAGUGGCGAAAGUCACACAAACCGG

- Variants of: B1
- measurementProtocol: reverse-splicing fitness (ratio to wild type); higher = more active; in vitro selection; Mg2+ level not given
Measured reverse-splicing fitness by item
endpointLabel: reverse-splicing fitness

• C82A A111U A145G C150U U176C = 0.115
• C82A A120U C169A U176A = 0.00254
• C82G A120U C150U C169A U176A = 0.00417
• A111C C150A C169A U176C = 0.0227
• C82A A111U A120U A145C C150G C169A U176G = 0.00234
• C82U A111U A120G A145C C150U U176C = 0.00906
• A120U A145C C150A C169G U176G = 0.00221
• C82A A111U A145U C169A U176A = 0.012
• C82G A111U A120G U176G = 0.00905
• C82U A111G A145G C150U C169G U176G = 0.00547
• C82A A111C A120C A145C C150G C169A = 0.00854
